z-score values, listed per item
# procedure-details: E. coli acrAB mutant growth effects, primary screen, E. coli filamentation inducers, strain DRC39, OD650, 24 h (AID 1178);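 note: growth measured as culture turbidity by optical density at 650 nm; test concentration not given here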
# condition-summary: higher = more signal, called active from +8 up or from −8 down
Give only the figure.

Below: 3 compounds and their reported z-score.
C=CCNC(=O)[C@H]1[C@@H]2C(=O)O[C@@H](c3ccccc3)[C@@H](c3ccccc3)N2[C@@H](c2ccc(OCCO)cc2)[C@]12C(=O)N(C(=O)OCCOC)c1ccccc12: -0.595
COc1ccc([Si](C)(C)[C@@H]2[C@@H](CCO)O[C@]3(C(=O)N(Cc4ccc(N5C(=O)COc6ccccc65)cc4)c4ccccc43)[C@H]2C)cc1: -0.238
COc1ccc(CCNC(=O)[C@@]2(Sc3ccc(C)cc3)CC(=O)N(C3CCCCC3)[C@@H]2c2ccc(CO)cc2I)cc1: 0.258

Give the reported z-score for this compound. COc1ccc([Si](C)(C)[C@H]2[C@H](CC(=O)N3Cc4ccccc4C[C@H]3CO)O[C@@]3(C(=O)N(Cc4ccc(N5CCC5=O)cc4)c4ccccc43)[C@@H]2C)cc1
-0.0476

Give the reported z-score for this compound. [N-]=[N+]=NCc1ccccc1[C@@H]1OC(c2ccc(OCCCO)cc2)=N[C@]1(CCS(=O)(=O)c1ccccc1)C(=O)NCCN1CCOCC1
0.239

Give the reported z-score for this compound. NCCCCCNC(=O)[C@@H]1C[C@@H]2C(=O)NCC(=O)N2[C@@H]1c1ccc(O)cc1
0.121
